For each entry below, report its IC50 value.
# Tested on: Trypanosoma cruzi
# method description: GSK_TCAKS: pIC50 H2C9 Imaging: H9c2 Host Cardiomyocytes. […] Cells were then washed once with PBS before infection. T. cruzi trypomastigotes, collected at days 5 to 8 after infection from LLC-MK2 parasite infected cultures, were allowed to swim out for 4h at 37C from a centrifuged pellet (2,500 rpm/10 min/room temperature). Trypomastigotes were then collected and counted in a CASY Cell Counter. Trypomastigotes, in supplemented DMEM, were added to H9c2 cultures in a multiplicity of infection of 1 and incubated for 18 h. Cells were washed once with PBS before incubation of the infected H9c2 monolayer with trypsin (Life-Technologies) to detach cells from the flask. Cells were counted in a CASY Cell Counter using a 150 um capillary and their density set at 5 * 10^4 cells per mL in supplemented assay DMEM. Infected H9c2 were dispensed into 384-well poly-lysine coated assay plates at 50uL per well using a Multidrop Combi dispenser. After seeding them, the plates were incubated at 37C, 5% CO2 for 72h. Cultures were then fixed and stained by addition of 50 uL of a solution containing 8% formaldehyde and 4 uM DRAQ5 DNA dye (BioStatus, UK) per well. […] Five images were collected per well for reliable statistical analysis. Automated image analysis was performed with a script developed on Acapella High Content Imaging and Analysis Software (PerkinElmer). Output: Number of H9c2 Host Cardiomyocytes nuclei to determine drug-related cytotoxicity.
# Format: functional, organism-based, Rattus norvegicus
# study conditions: H9c2, 4 h

compound: CC(CNS(=O)(=O)c1ccc(OC(F)F)cc1)c1ccc(NC(=O)c2ccncc2)cc1 (stereo not drawn)
tgt: Trypanosoma cruzi
IC50: > 50.1 µM
//
compound: O=C(NCCc1ccccc1Cl)c1cccn1-c1cccnc1
tgt: Trypanosoma cruzi
IC50: > 50.1 µM

Next up:
Identify the reported IC50 for the following entry. Cc1nccn1C1CCCN(C(=O)c2cc3c(F)cccc3s2)C1 (stereo not drawn)
> 50.1 µM

* * *

# Test system: Trypanosoma brucei brucei
# method description: GSK_TCAKS: pIC50 Trypanosoma brucei viability assay using luminiscence. Assay plates (1536-well) were prepared. T. brucei cultures were harvested and counted in a CASY cell counter. A parasite suspension was prepared at a final concentration of 5 * 10^4 cells/mL in complete HMI9 medium and 6uL was dispensed to all wells containing compounds using a Multidrop Combi dispenser. 6uL of HMI9 media with 0.4% DMSO were dispensed to control columns. Plates were incubated for 24 h at 37C, 5% CO2 then tempered for 10 min at room temperature. ATP content was quantified by adding 4 uL of CellTiter-Glo Reagent (Promega) according to the manufacturer's instructions. Luminescence was measured using a ViewLux.
# Format: functional, organism-based
# study conditions: Lister 427, CASY
For each entry below, report its log10 of IC50 value.
Parameter value (number): base-10 log of IC50 in µM.

Here is how some compounds turned out for log10 of IC50.
compound: CC(C)COC(=O)Nc1ccc(N2CCC(CNS(=O)(=O)c3ccccc3)CC2)c(F)c1
observed: 1.30

compound: COc1ccc(NS(=O)(=O)c2cc(NC(=O)Cc3ccc(C)cc3)ccc2N2CCOCC2)cc1
observed: 0.90

compound: O=C(Nc1ccccc1)Nc1nc(-c2ccccn2)cs1
observed: 0.00

compound: COc1cccc(C(=O)[C@H]2C[C@@H]2CN(Cc2ccccn2)Cc2ccccn2)c1
observed: 1.30

Provide log10 of IC50 values for the following items, in order.
1. CCCc1nc2nc(N)nc(N)c2cc1CC
2. COc1cccc2sc(CN(C)C(=O)C3CNCCN3c3ccc(F)cc3)c(C)c12 (stereo not given)
3. O=C(Cn1cnc([N+](=O)[O-])n1)Nc1ccc(Cl)cc1C(=O)c1ccccc1
4. Cc1cc(Nc2cc(C3CC3)[nH]n2)nc(N2CCC[C@H]2C(N)=O)n1
5. C[C@@H](Oc1cc(-n2cnc3ccc(CC(O)CO)cc32)sc1C(N)=O)c1ccccc1Cl (stereo not given in full)
6. O=C(NCc1ccncc1)c1ccccc1N1CCCN(C(=O)Cc2ccc(F)c(F)c2)CC1

1.40
-0.60
1.50
-1.20
-0.10
1.30

* * *

# Tested on: Trypanosoma cruzi
# method description: GSK_TCAKS: pIC50 Trypanosoma cruzi viability assay using beta-GAL activity. This assay was run at single shot at 5uM compound concentration per well. The biological reagents consisted of NIH-3T3 host cells and trypomastigotes parasitic cells; both cell types were set to a 3.3 * 10^5 cells/mL dilution in assay DMEM by means of a CASY cell counter device using a 60um capillary. 6 uL of the mixture were dispensed per well (about 1 * 10^3 host-cells and 1 * 10^3 parasites) with a Multidrop Combi dispenser. […] In all wells, the percentage of DMSO never exceeded 0.5%. Plates incubated for four days at 37C, 5% CO2. The substrate used for the assay fluorescence intensity (FLINT) readout was resorufin-beta-D-galactopiranoside (Sigma-Aldrich) at 5uM per well. It was diluted in PBS supplemented with the soft detergent Igepal (Fluka).
# Assay type: functional, organism-based, Mus musculus
# study conditions: Tulahuen, NIH3T3
quantity: IC50 (nM)
Answers are plain numbers, in nM.

Here is how some compounds turned out for IC50.
chem smiles: O=C(Cn1cnc2cc([N+](=O)[O-])ccc2c1=O)NCCc1ccc(Cl)cc1Cl
observed: 631

chem smiles: O=C(NCCc1csc(-c2ccc(F)cc2)n1)c1cccs1
observed: 398

Provide IC50, recorded with Trypanosoma cruzi, of COc1ccccc1CNc1cc(C2CC2)nc(-c2nccn2C)n1
891

* * *

# System: Leishmania donovani
# method description: GSK_TCAKS: pIC50 Leishmania donovani Imaging: Amastigotes/Macrophages. Assay plates (384-well) were prepared by adding 250nL of compound to each well. For single shot assay, the final compound concentration was 5 uM. […] Automated image analysis was performed with a script developed on Acapella High Content Imaging and Analysis Software (PerkinElmer). Output: Average number of amastigotes per macrophage cell were reported for each well.
# Assay type: functional, organism-based, Homo sapiens
# study conditions: THP-1
Decide using IC50 alone. Strictly below 6 µM: condition met. Equal to or above 6 µM: condition not met.

See these solved cases before continuing.
compound: O=C(Nc1ccc(C(=O)N2CCCC2c2ccc3c(c2)OCCCO3)cc1)c1ccco1 (centres undefined)
class name: condition met
--
compound: Cc1nc2c(-c3ncn[nH]3)cc(NC(=O)Cc3ccccc3)cn2c1C
class name: condition met
--
compound: O=C(CN1CCN(S(=O)(=O)c2cccc([N+](=O)[O-])c2)CC1)Nc1ccc(Oc2ccccc2)cc1
class name: condition met
--
compound: Cc1nccn1C1CCCN(C(=O)c2cc3c(F)cccc3s2)C1 (centres undefined)
class name: condition not met
--
compound: Cc1nn2c(=O)c3c([nH]c2c1-c1ccc(Br)cc1)CCCC3
class name: condition not met

Record CCc1cccc(CC)c1-n1c(SCC(=O)NC(=O)NCc2ccco2)nnc1-c1cccnc1 : is its IC50 strictly below 6 µM?
condition not met

Record NCC(Cc1ccccc1)NC(=O)c1cnc(-c2c[nH]c3ncccc23)s1 (centres undefined) : is its IC50 strictly below 6 µM?
condition not met

Record CS(=O)(=O)c1cccc(-c2cnc(N)c3c(-c4ccc(CO)cc4)csc23)c1 : is its IC50 strictly below 6 µM?
condition not met

Record N#Cc1cccc(Cc2cc(Nc3cc(C4CC4)[nH]n3)nc(N3CC[C@H]3C(N)=O)n2)c1 : is its IC50 strictly below 6 µM?
condition met

Record Cc1ccc(NC(C)C(=O)Nc2ccc(C#N)cc2)cc1S(=O)(=O)N1CCCCC1 (centres undefined) : is its IC50 strictly below 6 µM?
condition met

Record CCN(CC)c1nc(N(C)C)nc2c1CN(Cc1ccccc1)CC2 : is its IC50 strictly below 6 µM?
condition met

Record CC(C)c1cc(Nc2cc(Cc3ccccc3)nc(N[C@H]3CC[C@H](O)CC3)n2)n[nH]1 : is its IC50 strictly below 6 µM?
condition met

Record CC(=O)Nc1ccc(-c2ccnc(Nc3cccc(C#N)c3)n2)cc1 : is its IC50 strictly below 6 µM?
condition not met

Record Cc1nn(C2CCS(=O)(=O)C2)c(C)c1CN(C)C(=O)C=Cc1sc2ccccc2c1Cl (centres undefined) : is its IC50 strictly below 6 µM?
condition not met

Record CN(C)Cc1ccc(-c2ccc(S(=O)(=O)NCC3CCCO3)c(F)c2)cc1 (centres undefined) : is its IC50 strictly below 6 µM?
condition not met

Record Cc1occc1C(=O)Nc1ccccc1C(=O)Nc1nccs1 : is its IC50 strictly below 6 µM?
condition not met

Record Nc1nonc1-c1nc2cncc(C(=O)N3CC[C@H](N)C3)c2n1CC1CC1 : is its IC50 strictly below 6 µM?
condition not met

Record Cc1ccc(Nc2nc(N)nc(CNC(c3nc4ccccc4[nH]3)C(C)C)n2)cc1 (centres undefined) : is its IC50 strictly below 6 µM?
condition met

Record CC(C)(C)C(=O)Nc1cc(C2CC2)nn1-c1nc2c(c(=O)[nH]1)CCCC2 : is its IC50 strictly below 6 µM?
condition met

Record CC(C)n1c(-c2nonc2N)nc2cccc(OCCN3CCCC3)c21 : is its IC50 strictly below 6 µM?
condition not met

Record C[C@@H](Oc1cc(-n2cnc3ccc(C(O)CO)cc32)sc1C(N)=O)c1ccccc1C(F)(F)F (some centres undefined) : is its IC50 strictly below 6 µM?
condition not met

Record O=C(Cc1ccc2c(c1)CCC2)Nc1nnc(-c2ccccn2)[nH]1 : is its IC50 strictly below 6 µM?
condition not met

Record O=C(Nc1nccs1)c1ccccc1Cn1cc([N+](=O)[O-])cn1 : is its IC50 strictly below 6 µM?
condition not met
